# Tested on: OVCAR-3
# TEST NAME: NCI tumour cell line growth inhibition, 48 h
Activity calls are given as the source filed them. Cut-off read from the data, not from the text of the source: active = GI50 up to about 1.1 µM and inactive = higher.
READOUT LABEL: GI50

Some compounds with known GI50 results, for comparison:
COMPOUND: COc1ccc(-c2cc(=O)c3c(O)c(O)c(OC)cc3o2)cc1O
READOUT LABEL: GI50
RESULT: > 100 µM (inactive)
--
COMPOUND: O=c1c(Br)cc2c(-c3ccccc3)c3cc(Br)c(O)c(Br)c3oc-2c1Br
READOUT LABEL: GI50
RESULT: > 100 µM (inactive)
--
COMPOUND: CN1Cc2c(ccc3c2OCO3)[C@@H]2[C@H](O)Cc3cc4c(cc3[C@@H]21)OCO4
READOUT LABEL: GI50
RESULT: 2.2 µM (inactive)
--
COMPOUND: CCOC(=O)/C=C(/C(=O)OCC)n1ccc(=O)n(/C(=C/C(=O)OCC)C(=O)OCC)c1=O
READOUT LABEL: GI50
RESULT: 6.19 µM (inactive)
--
COMPOUND: Cn1c(N/N=C/c2ccccc2)nc(-c2ccc([N+](=O)[O-])cc2)c(C#N)c1=O
READOUT LABEL: GI50
RESULT: 20.5 µM (inactive)
--
COMPOUND: Cc1cc(=O)cc2sc3cc(Cl)ccc3nc1-2
READOUT LABEL: GI50
RESULT: 8.89 µM (inactive)
--
COMPOUND: CC1(C)OC[C@H](COCOP2(=O)Oc3ccc4ccccc4c3-c3c(ccc4ccccc34)O2)O1
READOUT LABEL: GI50
RESULT: 15.3 µM (inactive)
--
COMPOUND: C=C(C(=O)OC)[C@H]1CC/C(C)=C/CC/C(C)=C/CC[C@@]2(C)O[C@@H]2C1
READOUT LABEL: GI50
RESULT: 17.7 µM (inactive)

Give the value of GI50 reported for the following: CCOC(=O)/C(=C\NC(N)=S)C(=O)c1ccccc1
> 100 µM (inactive)

Annotate the compound N#CCCC1(CCC#N)CCCCCCCCC(CCC#N)(CCC#N)C(O)C1O (stereo not given) with its measured GI50.
> 100 µM (inactive)

* * *

GI50 by entry:
# Test system: EKVX
# TEST NAME: NCI tumour cell line growth inhibition, 48 h
Calls of active or inactive are those of the source. No stated cut-off is given here; in the data, active = GI50 up to about 1.1 µM and inactive = higher.

Would you please look over these solved cases?
COMPOUND: O=c1cc2ccccc2nn1-c1ccccc1Cl
GI50: > 100 µM (inactive)

COMPOUND: CCOC(=O)C1(O)C(=O)C2=C3C(=O)OC(C4OC(=O)c5c(c(O)c(O)c(O)c5C31)-c1c(cc(O)c(O)c1O)C(=O)OC1COC(=O)c3cc(O)c(O)c(O)c3-c3c(cc(O)c(O)c3O)C(=O)OC14)[C@@H]2O (some centres undefined)
GI50: 13.4 µM (inactive)

COMPOUND: Cc1cc2c([nH]c3ccccc32)c2c1OC(C)(C)C1C3CC(C)(C)Oc4c(C)cc5c6ccccc6n(c5c43)C21 (centres undefined)
GI50: > 100 µM (inactive)

COMPOUND: COc1ccccc1C1(c2c(OC(C)C)c(=O)c2=O)SCCCS1
GI50: > 100 µM (inactive)

Answer with the recorded GI50 of Cc1cn([C@@H]2C[C@](C)(CO)N(C)O2)c(=O)[nH]c1=O only.
> 100 µM (inactive)

Return the recorded GI50 value; entry: COc1ccc(-c2nc3ccc([N+](=O)[O-])cc3c(=O)[nH]2)cc1
66.1 µM (inactive)

Let me know recorded GI50 for Oc1cc2c3c(c1)c1cc4c(cc1c[n+]3CC2)OCO4 , thanks.
7.73 µM (inactive)

Hello, please tell me recorded GI50 for this one: COC(=O)c1cc2c(c(C(=O)OC)c1O)C(=O)C=CC2=O
> 21.2 µM (inactive)

Complete the entry with GI50 for O=c1[nH]c2ccc(C(F)(F)F)cc2nc1Cc1ccccc1
25.8 µM (inactive)
